target: Cathepsin B (Homo sapiens); assay: Cathepsin B inhibition, fluorogenic peptide substrate kinetic assay (selectivity); assay type: biochemical; conditions: ratio of cathepsin B inhibition constant to cathepsin S inhibition constant
quantity: Selectivity for Cat. S over Cat. B

Worked examples, 6 compounds total:
smiles_record: CC1(C)CN(C[C@@H](NC(=O)[C@@H](CC(=O)N2CCOCC2)c2ccc(C(F)(F)F)cc2)C2CC2)c2ccc(F)cc21
quantity: Selectivity for Cat. S over Cat. B
obs_value: ++ (++, >100)
--
smiles_record: CC(=O)N1CCN(C(=O)[C@H](CC2CCCCC2)OC(=O)N[C@@H](C)CN2c3ccc(F)cc3CC2(C)C)CC1
quantity: Selectivity for Cat. S over Cat. B
obs_value: + (+, >10)
--
smiles_record: CCC[C@@H](CNc1ccc(OC(F)(F)F)cc1)NC(=O)[C@@H](CC(=O)N1CCOCC1)CC1CCCC1
quantity: Selectivity for Cat. S over Cat. B
obs_value: +++ (+++, >1000)
--
smiles_record: C[C@@H](CNc1ccc(OC(F)(F)F)cc1)NC(=O)[C@@H](CC(=O)N1CCOCC1)c1ccc(C(F)(F)F)cc1
quantity: Selectivity for Cat. S over Cat. B
obs_value: + (+, >10)
--
smiles_record: C[C@@H](CNc1ccc(OC(F)(F)F)cc1)NC(=O)[C@H](CC1CCCC1)[C@@H](C)C(=O)N1CCOCC1
quantity: Selectivity for Cat. S over Cat. B
obs_value: ++ (++, >100)
--
smiles_record: COc1ccc(NC[C@H](C)NC(=O)[C@H](CC2CCCC2)NC(=O)N2CCOCC2)cc1
quantity: Selectivity for Cat. S over Cat. B
obs_value: ++ (++, >100)

**Q:** Return the recorded Selectivity for Cat. S over Cat. B value; entry: CC(C)[C@@H](CNc1cccnc1)NC(=O)[C@H](CC1CCCCC1)NC(=O)N1CCOCC1
**A:** + (+, >10)

**Q:** Return the recorded Selectivity for Cat. S over Cat. B value; entry: CCC[C@@H](CNc1ccc(OC(F)(F)F)cc1)NC(=O)[C@@H](CC(=O)N1CCOCC1)c1ccccc1
**A:** +++ (+++, >1000)

**Q:** Return the recorded Selectivity for Cat. S over Cat. B value; entry: C[C@@H](CNc1ccc(OC(F)(F)F)cc1)NC(=O)[C@@H](CC(=O)N1CCOCC1)CC(C)(C)C
**A:** ++ (++, >100)

* * *

pKi by entry:
molecular target: Cathepsin S (Homo sapiens, UniProt P25774); assay: Cathepsin S inhibition, fluorogenic peptide substrate kinetic assay;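 note: cleavage rate of a coumarin-labelled peptide substrate (50 µM) read as fluorescence increase at Ex 380 nm and Em 450 nm, relative to inhibitor-free control reactions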; type: biochemical; conditions: Cathepsin S inhibition constant; pH5.5, 20 minutes preincubation at room temperature; read-out: Ki Cat. S
Sequence (P25774 115-331, species assumed): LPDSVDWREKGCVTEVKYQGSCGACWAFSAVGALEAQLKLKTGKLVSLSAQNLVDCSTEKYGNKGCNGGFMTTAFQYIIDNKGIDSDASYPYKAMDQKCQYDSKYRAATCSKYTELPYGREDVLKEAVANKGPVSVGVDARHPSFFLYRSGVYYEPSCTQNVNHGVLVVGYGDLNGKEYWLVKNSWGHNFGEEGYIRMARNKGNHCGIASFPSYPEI
pKi: −log10 of the molar value.

compound: C[C@@H](CNc1ccc(OC(F)(F)F)cc1)NC(=O)[C@H](CS(=O)(=O)Cc1ccccc1)NC(=O)N1CCOCC1
pKi: > 7.00
//
compound: CC(C)[C@@H](CNc1cccc(S(C)(=O)=O)c1)NC(=O)[C@@H](CC(=O)N1CCOCC1)c1ccc(F)cc1
pKi: 5.00 to 6.00
//
compound: C[C@@H](CNc1ccc(OC(F)(F)F)cc1)NC(=O)[C@@H](CC(=O)N1CCOCC1)c1ccccc1
pKi: 5.00 to 6.00
//
compound: O=C(NCCNc1ccc(F)cc1)[C@H](CC1CCCCC1)NC(=O)N1CCOCC1
pKi: > 7.00
//
compound: CC[C@@H](CNc1ccc(OC(F)(F)F)cc1)NC(=O)[C@H](CC1CCCCC1)NC(=O)N1CCOCC1
pKi: > 7.00

**Q:** Return the recorded pKi value; entry: O=C(N[C@H](CN1CC2(CC2)c2cc(F)ccc21)C1CC1)[C@H](CC1CCCCC1)NC(=O)N1CCOCC1
**A:** > 7.00

**Q:** Return the recorded pKi value; entry: O=C(N[C@H](CNc1ccc(OC(F)(F)F)cc1)c1ccccc1)[C@@H](CC(=O)N1CCOCC1)c1ccc(Cl)cc1
**A:** 6.00 to 7.00

**Q:** Return the recorded pKi value; entry: C[C@@H](CNc1ccc(OC(F)(F)F)cc1)NC(=O)[C@@H](CC(=O)N1CCS(=O)(=O)CC1)CC1CCCCC1
**A:** 6.00 to 7.00

**Q:** Return the recorded pKi value; entry: CC1(C)CN(C[C@@H](NC(=O)[C@@H](CC(=O)N2CCOCC2)c2ccc(C(F)(F)F)cc2)C2CC2)c2ccc(F)cc21
**A:** 6.00 to 7.00

**Q:** Return the recorded pKi value; entry: C[C@@H](CN1CCc2cc(F)ccc21)NC(=O)[C@H](CC1CCCCC1)OC(=O)N1CCOCC1
**A:** 6.00 to 7.00

**Q:** Return the recorded pKi value; entry: CCC1(O)CCCC(C[C@H](CC(=O)N2CCOCC2)C(=O)N[C@@H](C)CNc2ccc(OC(F)(F)F)cc2)C1 (stereo partly drawn)
**A:** 5.00 to 6.00

**Q:** Return the recorded pKi value; entry: C[C@@H](CNc1ccc(OC(F)(F)F)cc1)NC(=O)[C@@H](CC(=O)N1CCSCC1)CC1CCCCC1
**A:** > 7.00

**Q:** Return the recorded pKi value; entry: CS(=O)(=O)CC[C@@H](CNc1ccc(OC(F)(F)F)cc1)NC(=O)[C@H](CC1CCCCC1)NC(=O)N1CCOCC1
**A:** > 7.00

**Q:** Return the recorded pKi value; entry: C[C@@H](CN1CCc2cc(F)ccc21)NC(=O)[C@@H](CC(=O)N1CCOCC1)CC1CCCCC1
**A:** > 7.00

**Q:** Return the recorded pKi value; entry: C[C@@H](CN1CC(C)(C)c2cc(F)ccc21)NC(=O)[C@@H](CC(=O)N1CCOCC1)CC1CCCCC1
**A:** > 7.00

**Q:** Return the recorded pKi value; entry: C=CC[C@H](CC(=O)N1CCOCC1)C(=O)N[C@H](CNc1ccc(OC(F)(F)F)cc1)C(C)C
**A:** 6.00 to 7.00

**Q:** Return the recorded pKi value; entry: C[C@@H](CNc1ccc(OC(F)(F)F)cc1)NC(=O)[C@H](CSCc1ccccc1)NC(=O)N1CCOCC1
**A:** > 7.00

**Q:** Return the recorded pKi value; entry: Cc1cc(NC[C@H](C)NC(=O)O[C@@H](CC2CCCCC2)C(=O)N2CCOCC2)no1
**A:** 5.00 to 6.00

* * *

target: Cathepsin B (Homo sapiens, UniProt P07858); test: Cathepsin B inhibition, fluorogenic peptide substrate kinetic assay (selectivity); type: biochemical; conditions: ratio of cathepsin B inhibition constant to cathepsin S inhibition constant;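 note: value is the cathepsin B inhibition constant divided by the cathepsin S one, each from kinetic fluorescence readings (ex 380 nm, em 450 nm) of a 10 µM coumarin peptide substrate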
quantity: Selectivity for Cat. S over Cat. B

Worked examples, 4 compounds total:
smiles_record: CC(C)[C@@H](CNc1ccc(OC(F)(F)F)cc1)NC(=O)[C@@H](CC(=O)N1CCOCC1)c1ccccc1
Selectivity for Cat. S over Cat. B: +++ (+++, >1000)
--
smiles_record: C[C@@H](CNc1nc2ccccc2o1)NC(=O)[C@H](CC1CCCCC1)NC(=O)N1CCOCC1
Selectivity for Cat. S over Cat. B: + (+, >10)
--
smiles_record: C[C@@H](CNc1ccc(OC(F)(F)F)cc1)NC(=O)[C@@H](CC(=O)N1CCOCC1)c1ccccc1
Selectivity for Cat. S over Cat. B: + (+, >10)
--
smiles_record: C[C@@H](CNc1ccc(OC(F)(F)F)cc1)NC(=O)[C@@H](CC(=O)N1CCSCC1)CC1CCCCC1
Selectivity for Cat. S over Cat. B: +++ (+++, >1000)

**Q:** Return the recorded Selectivity for Cat. S over Cat. B value; entry: COc1ccc(NCCNC(=O)[C@@H](CC(=O)N2CCOCC2)CC2CCCCC2)cc1
**A:** ++ (++, >100)

**Q:** Return the recorded Selectivity for Cat. S over Cat. B value; entry: COc1ccc(NC[C@@H](NC(=O)[C@@H](CC(=O)N2CCOCC2)c2ccc(F)cc2)C(C)C)cn1
**A:** ++ (++, >100)

**Q:** Return the recorded Selectivity for Cat. S over Cat. B value; entry: O=C(C[C@@H](CC1CCCCC1)C(=O)N1CCOCC1)NCCNc1ccc(F)cc1
**A:** + (+, >10)

* * *

target: Cathepsin B (Homo sapiens); assay: Cathepsin B inhibition, fluorogenic peptide substrate kinetic assay (selectivity); assay type: biochemical; conditions: ratio of cathepsin B inhibition constant to cathepsin S inhibition constant
quantity: Selectivity for Cat. S over Cat. B

compound: CC(C)[C@@H](CN1CC(C)(C)c2cc(F)ccc21)NC(=O)[C@@H](CC(=O)N1CCOCC1)c1ccc(C(F)(F)F)cc1 [Example 68]
obs_value: +++ (+++, >1000)
--
compound: CC1(C)CN(C[C@@H](NC(=O)[C@H](CC2CCCCC2)NC(=O)N2CCOCC2)C2CC2)c2ccc(F)cc21 [Example 81]
obs_value: +++ (+++, >1000)
--
compound: C[C@@H]1CN(C(=O)C[C@@H](CC2CCCCC2)C(=O)N[C@@H](C)CNc2ccc(OC(F)(F)F)cc2)C[C@H](C)O1 [Example 50]
obs_value: +++ (+++, >1000)
